B1: Homeobox protein SIX6, residues 134 to 184; numbered along this chain, O95475 (parent)
chain: CFKERTRHLLREWYLQDPYPNPSKKRELAQATGLTPTQVGNWFKNRRQRDR

# Variants of: B1
# measurementNotes: abundance fitness (aPCA) (normalised: wild type 0, dead -1); higher = more abundant; growth selection in yeast, the domain comes from the species named
# protocolConditions: Homo sapiens
Output Met for abundance fitness not less than -0.3; output Not met otherwise.

These solved cases illustrate the format of a correct answer.
[[record]]
mutationid = "L28C"
label = "Not met"

[[record]]
mutationid = "N45K"
label = "Met"

[[record]]
mutationid = "P22E"
label = "Met"

[[record]]
mutationid = "F43A"
label = "Not met"


Say whether R51A shows abundance fitness of -0.3 or more.
Not met

Say whether L28I shows abundance fitness of -0.3 or more.
Met

Say whether A29W shows abundance fitness of -0.3 or more.
Not met

Numbers sourced from the Human Domainome abundance scans (Beltran et al. 2025).
